Answer each item with its documented Ki.
- measured-on: hCA IV (Homo sapiens)
- Construct: gene CA4; recombinant, obtained in-house; membrane-associated isoform
- Sequence (P22748 19-284): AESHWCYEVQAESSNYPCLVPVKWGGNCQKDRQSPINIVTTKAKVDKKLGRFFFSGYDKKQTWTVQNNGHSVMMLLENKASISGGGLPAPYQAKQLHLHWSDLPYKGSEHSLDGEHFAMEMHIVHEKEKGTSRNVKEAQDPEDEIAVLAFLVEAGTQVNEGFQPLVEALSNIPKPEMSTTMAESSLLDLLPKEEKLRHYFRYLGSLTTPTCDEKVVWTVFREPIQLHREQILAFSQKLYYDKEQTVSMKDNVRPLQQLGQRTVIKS
- protocol: stopped-flow CO2 hydrase assay
- Assay type: biochemical
- test-context: read-out: hCA IV

Challenge: Check the records and state Ki for NS(=O)(=O)c1ccc(NC2=NC(=O)C(=Cc3c[nH]c4ccccc34)S2)cc1
Response given: 4.43 µM

Challenge: Check the records and state Ki for O=C1N=C(Nc2ccc(S(=O)(=O)Nc3ccccn3)cc2)SC1=Cc1c[nH]c2ccccc12
Response given: > 10 µM

Challenge: Check the records and state Ki for COc1ccc(C2=NC(=Cc3cn(C(C)=O)c4ccccc34)C(=O)N2c2ccc(S(=O)(=O)Nc3nccs3)cc2)cc1 [10k]
Response given: > 10 µM

Challenge: Check the records and state Ki for N=C(N)NS(=O)(=O)c1ccc(N=Cc2c[nH]c3ccccc23)cc1
Response given: > 10 µM

Challenge: Check the records and state Ki for CC(=O)n1cc(C=C2N=C(c3ccccc3)N(c3ccc(S(N)(=O)=O)cc3)C2=O)c2ccccc21 [10a]
Response given: 0.263 µM

Challenge: Check the records and state Ki for O=S(=O)(Nc1nccs1)c1ccc(N=Cc2c[nH]c3ccccc23)cc1
Response given: > 10 µM

Challenge: Check the records and state Ki for N=C(N)NS(=O)(=O)c1ccc(NC2=NC(=O)C(=Cc3c[nH]c4ccccc34)S2)cc1
Response given: > 10 µM

Challenge: Check the records and state Ki for CC(=O)n1cc(C=C2N=C(c3ccccc3)N(c3ccc(S(=O)(=O)Nc4ccccn4)cc3)C2=O)c2ccccc21 [10d]
Response given: > 10 µM

Challenge: Check the records and state Ki for O=S(=O)(Nc1ccccn1)c1ccc(N=Cc2c[nH]c3ccccc23)cc1
Response given: > 10 µM

Challenge: Check the records and state Ki for COc1ccc(C2=NC(=Cc3cn(C(C)=O)c4ccccc34)C(=O)N2c2ccc(S(=O)(=O)Nc3ncccn3)cc2)cc1 [10i]
Response given: > 10 µM

Challenge: Check the records and state Ki for CC(=O)NS(=O)(=O)c1ccc(N2C(=O)C(=Cc3cn(C(C)=O)c4ccccc34)N=C2c2ccccc2)cc1 [10b]
Response given: > 10 µM

Challenge: Check the records and state Ki for O=S(=O)(Nc1ncccn1)c1ccc(N=Cc2c[nH]c3ccccc23)cc1
Response given: > 10 µM

Challenge: Check the records and state Ki for CC(=O)n1cc(C=C2N=C(c3ccccc3)N(c3ccc(S(=O)(=O)Nc4ncccn4)cc3)C2=O)c2ccccc21 [10c]
Response given: > 10 µM

Challenge: Check the records and state Ki for CC(=O)n1cc(C=C2N=C(c3ccccc3)N(c3ccc(S(=O)(=O)Nc4nccs4)cc3)C2=O)c2ccccc21 [10e]
Response given: > 10 µM

Challenge: Check the records and state Ki for COc1ccc(C2=NC(=Cc3cn(C(C)=O)c4ccccc34)C(=O)N2c2ccc(S(N)(=O)=O)cc2)cc1 [10g]
Response given: 2.77 µM

Challenge: Check the records and state Ki for CC(=O)n1cc(C=C2N=C(c3ccccc3)N(c3ccc(S(=O)(=O)N=C(N)N)cc3)C2=O)c2ccccc21 [10f]
Response given: > 10 µM

Challenge: Check the records and state Ki for NS(=O)(=O)c1ccc(N=Cc2c[nH]c3ccccc23)cc1
Response given: 2.74 µM
